procedureSummary: Plasma levels following administration of 50 mg/Kg perorally and concentration in plasma 6 hr after administration
Type: ADME, cell-free
conditionSummary: po, read-out: Plasma level
endpointName: concentration at 6 h (µM)
# number only, unit µM dropped from output

{"columns": ["compound", "concentration at 6 h, µM"],
 "data": [
  ["COc1cc2c(Nc3ccc(Br)cc3F)ncnc2cc1OCCn1ccnn1 [ZD-4190 FREE BASE]", 14],
  ["COc1cc2c(Nc3ccc(Cl)cc3F)ncnc2cc1OCCCN1CCN(C)CC1.Cl", 5],
  ["COc1cc2c(Nc3ccc(Br)cc3F)ncnc2cc1OCCC1CCN(C)CC1", 3],
  ["COc1cc2c(Nc3ccc(Br)cc3F)ncnc2cc1OCC1CCN(C)CC1.Cl", 5.5]
]}

Query compound follows.
So for COc1cc2c(Nc3ccc(Br)cc3F)ncnc2cc1OC[C@@H]1CCCN(C)C1 , the logged concentration at 6 h turned out to be 5.5

---

experimentalSystem: Vascular endothelial growth factor receptor (Homo sapiens, UniProt P17948+P35916+P35968)
procedureSummary: Inhibition of human endothelial cell growth stimulate by vascular endothelial growth factor
We label by threshold. Values of IC50 strictly beneath 40 nM are Fulfilled. Values of 40 nM and up are Not fulfilled.

Examples with answers:
{"columns": ["substanceSmiles", "assignedClass"],
 "data": [
  ["COc1cc2c(Nc3cc(O)c(C)cc3F)ncnc2cc1OCC1CCN(C)CC1.Cl", "Fulfilled"],
  ["COc1cc2c(Nc3ccc(Br)cc3F)ncnc2cc1OC/C=C/CN1CCCC1.Cl", "Fulfilled"],
  ["COc1cc2c(Nc3ccc(Cl)cc3F)ncnc2cc1OCCC1CCN(C)CC1", "Not fulfilled"],
  ["COc1cc2c(Nc3c(F)cc(Cl)cc3F)ncnc2cc1OCC1CCNCC1", "Not fulfilled"],
  ["COc1cc2c(Nc3ccc(C#N)cc3F)ncnc2cc1OC/C=C/CN1CCCC1", "Not fulfilled"]
]}

// query Is IC50 of COc1cc2c(Nc3ccc(Cl)cc3F)ncnc2cc1OCCN1CCN(C)CC1 strictly below 40 nM?
// result Not fulfilled

// query Is IC50 of COc1cc2c(Nc3ccc(C)cc3F)ncnc2cc1OCC1CCNCC1 strictly below 40 nM?
// result Not fulfilled

// query Is IC50 of COc1cc2c(Nc3c(F)cc(Br)cc3F)ncnc2cc1OCC1CCN(C)CC1 strictly below 40 nM?
// result Not fulfilled

// query Is IC50 of COc1cc2c(Nc3ccc(Cl)cc3F)ncnc2cc1OCCCN1CCCC1.Cl strictly below 40 nM?
// result Fulfilled

---

Entries with reported pIC50 on Epidermal growth factor receptor (Homo sapiens)
Sequence (P00533 whole entry): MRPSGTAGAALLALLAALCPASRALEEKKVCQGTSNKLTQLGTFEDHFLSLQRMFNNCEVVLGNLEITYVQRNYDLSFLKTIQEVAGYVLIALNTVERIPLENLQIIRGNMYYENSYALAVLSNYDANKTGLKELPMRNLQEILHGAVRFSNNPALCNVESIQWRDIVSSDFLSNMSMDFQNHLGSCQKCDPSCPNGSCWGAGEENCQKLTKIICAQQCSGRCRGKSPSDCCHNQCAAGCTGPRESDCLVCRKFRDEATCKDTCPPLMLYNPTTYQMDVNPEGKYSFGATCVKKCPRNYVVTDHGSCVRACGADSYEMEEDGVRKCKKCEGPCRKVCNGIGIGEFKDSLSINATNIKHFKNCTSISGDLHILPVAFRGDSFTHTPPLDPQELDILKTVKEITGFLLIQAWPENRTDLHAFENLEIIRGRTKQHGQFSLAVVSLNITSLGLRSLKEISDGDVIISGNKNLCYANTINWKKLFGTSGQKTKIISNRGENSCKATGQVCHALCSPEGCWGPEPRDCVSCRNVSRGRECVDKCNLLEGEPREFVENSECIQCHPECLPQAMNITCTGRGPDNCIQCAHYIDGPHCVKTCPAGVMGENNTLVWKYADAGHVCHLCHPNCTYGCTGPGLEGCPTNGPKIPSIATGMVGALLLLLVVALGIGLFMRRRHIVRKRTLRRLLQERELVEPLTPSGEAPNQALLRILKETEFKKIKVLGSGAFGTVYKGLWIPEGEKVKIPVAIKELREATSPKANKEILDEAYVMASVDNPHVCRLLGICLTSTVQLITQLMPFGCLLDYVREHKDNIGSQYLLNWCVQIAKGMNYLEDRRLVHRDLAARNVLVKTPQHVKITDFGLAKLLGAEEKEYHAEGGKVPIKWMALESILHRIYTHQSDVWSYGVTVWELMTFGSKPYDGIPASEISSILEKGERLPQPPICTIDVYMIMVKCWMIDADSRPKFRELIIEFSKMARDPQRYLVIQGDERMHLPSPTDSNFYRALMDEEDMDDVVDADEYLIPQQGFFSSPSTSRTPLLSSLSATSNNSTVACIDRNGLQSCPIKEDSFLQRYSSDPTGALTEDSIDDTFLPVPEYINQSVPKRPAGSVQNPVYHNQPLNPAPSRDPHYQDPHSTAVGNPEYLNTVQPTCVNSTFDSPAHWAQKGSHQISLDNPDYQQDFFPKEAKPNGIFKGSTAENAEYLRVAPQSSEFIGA
Please note pIC50 is a logarithmic value: minus log10 of concentration in mol/L. Answer with that number alone.

Some compounds with recorded pIC50:
{"columns": ["substanceSmiles", "pIC50"],
 "data": [
  ["COc1cc2c(Nc3ccc(C)cc3F)ncnc2cc1OCC1CCN(C)CC1", 6.00],
  ["COc1cc2c(Nc3ccc(Br)cc3F)ncnc2cc1OCCCN1CCN(C)CC1.Cl", 7.00],
  ["COc1cc2c(Nc3ccc(Cl)cc3F)ncnc2cc1OCCN1CCN(C)CC1", 6.70],
  ["COc1cc2c(Nc3ccc(C#N)cc3F)ncnc2cc1OC/C=C/CN1CCCC1", 6.10]
]}

Record COc1cc2c(Nc3ccc(C)cc3F)ncnc2cc1OCC1CCNCC1 has Epidermal growth factor receptor (Homo sapiens) pIC50 equal to 6.30

Reference source for all entries: ChEMBL document CHEMBL1135889
